From: patent US20220073584A1

Exercise: state measured hRXFP1 EC50 (M), cAMP HTRF assay in CHO-K1 RXFP1 Gs cells for each of the binders provided.
Biological target: T1, human RXFP1 receptor (human, UniProt Q9HBX9 1-757)
T1 sequence (looked up): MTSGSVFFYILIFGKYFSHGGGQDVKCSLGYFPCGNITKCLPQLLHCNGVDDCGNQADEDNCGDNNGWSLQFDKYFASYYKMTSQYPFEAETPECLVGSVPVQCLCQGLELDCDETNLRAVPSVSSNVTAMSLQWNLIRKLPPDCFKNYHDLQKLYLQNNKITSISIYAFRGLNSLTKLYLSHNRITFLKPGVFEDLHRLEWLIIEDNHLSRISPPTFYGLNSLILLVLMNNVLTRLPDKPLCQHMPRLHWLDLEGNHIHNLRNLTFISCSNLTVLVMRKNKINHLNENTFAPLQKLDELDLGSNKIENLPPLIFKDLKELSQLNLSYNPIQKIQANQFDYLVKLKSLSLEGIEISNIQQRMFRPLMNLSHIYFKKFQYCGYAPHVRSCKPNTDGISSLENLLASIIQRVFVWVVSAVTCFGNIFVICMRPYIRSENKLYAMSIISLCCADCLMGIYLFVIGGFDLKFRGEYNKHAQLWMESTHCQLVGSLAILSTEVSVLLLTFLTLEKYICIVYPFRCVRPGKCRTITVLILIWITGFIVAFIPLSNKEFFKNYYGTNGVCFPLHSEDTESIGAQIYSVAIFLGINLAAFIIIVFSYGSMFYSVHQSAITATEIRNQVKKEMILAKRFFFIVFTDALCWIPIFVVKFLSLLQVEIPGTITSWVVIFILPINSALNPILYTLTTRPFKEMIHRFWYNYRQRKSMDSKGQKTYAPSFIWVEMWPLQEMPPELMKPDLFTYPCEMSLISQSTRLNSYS
Assay: cell-based or functional assay
Ends that are not written are not given here.
Give bare numbers, in M.

Fc-TMΔTHTΔK_hRLX2(BA)_21-15AA (Fc fusion) GGGSACPPCPAPEFEGGPSVFLFPPKPKDTLMISRTPEVTCVVVDVSHEDPEVKFNWYVDGVEVHNAKTKPREEQYNSTYRVVSVLTVLHQDWLNGKEYKCKVSNKALPASIEKTISKAKGQPREPQVYTLPPSREEMTKNQVSLTCLVKGFYPSDIAVEWESNGQPENNYKTTPPVLDSDGSFFLYSKLTVDKSRWQQGNVFSCSVMHEALHNHYTQKSLSLSPGGGGGSGGGGSGGGGSGGGGGSSWMEEVIKLCGRELVRAQIAICGMSTWSGGGGSGGGGSGGGGSQLYSALANKCCHVGCTKRSLARFC = 1.56e-08
hRLX2(BA)-Fc-TMΔTHTΔK_15-24AA (Fc fusion) SWMEEVIKLCGRELVRAQIAICGMSTWSGGGGSGGGGSGGGGSQLYSALANKCCHVGCTKRSLARFCAAAGGGGSGGGGSGGGGSGGGGSACPPCPAPEFEGGPSVFLFPPKPKDTLMISRTPEVTCVVVDVSHEDPEVKFNWYVDGVEVHNAKTKPREEQYNSTYRVVSVLTVLHQDWLNGKEYKCKVSNKALPASIEKTISKAKGQPREPQVYTLPPSREEMTKNQVSLTCLVKGFYPSDIAVEWESNGQPENNYKTTPPVLDSDGSFFLYSKLTVDKSRWQQGNVFSCSVMHEALHNHYTQKSLCLSPG = 1.13e-09
recombinant human Relaxin-2 (R&D Systems, catalogue number 6586-RN-025) (ligand, not fully specified (bridges); ends and bridges not checked; also: two interchain and one intrachain disulfide bonds, positions not given here) chain 1: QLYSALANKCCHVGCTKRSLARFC chain 2: DSWMEEVIKLCGRELVRAQIAICGMSTWS = 1.38e-10
Fc-TMΔTHTΔK_hRLX2_21-15AA (Fc fusion) GGGSACPPCPAPEFEGGPSVFLFPPKPKDTLMISRTPEVTCVVVDVSHEDPEVKFNWYVDGVEVHNAKTKPREEQYNSTYRVVSVLTVLHQDWLNGKEYKCKVSNKALPASIEKTISKAKGQPREPQVYTLPPSREEMTKNQVSLTCLVKGFYPSDIAVEWESNGQPENNYKTTPPVLDSDGSFFLYSKLTVDKSRWQQGNVFSCSVMHEALHNHYTQKSLSLSPGGGGGSGGGGSGGGGSGGGGGSQLYSALANKCCHVGCTKRSLARFCGGGGSGGGGSGGGGSSWMEEVIKLCGRELVRAQIAICGMSTWS = 2.6e-09

Query: Fill in: hRXFP1 EC50 (M), cAMP HTRF assay in CHO-K1 RXFP1 Gs cells of hRLX2-Fc-TMΔTHTΔK_15-24AA (Fc fusion) QLYSALANKCCHVGCTKRSLARFCGGGGSGGGGSGGGGSSWMEEVIKLCGRELVRAQIAICGMSTWSAAAGGGGSGGGGSGGGGSGGGGSACPPCPAPEFEGGPSVFLFPPKPKDTLMISRTPEVTCVVVDVSHEDPEVKFNWYVDGVEVHNAKTKPREEQYNSTYRVVSVLTVLHQDWLNGKEYKCKVSNKALPASIEKTISKAKGQPREPQVYTLPPSREEMTKNQVSLTCLVKGFYPSDIAVEWESNGQPENNYKTTPPVLDSDGSFFLYSKLTVDKSRWQQGNVFSCSVMHEALHNHYTQKSLSLSPG is ___
Result: 4.97e-09
